pIC50: −log10 of the molar value.
parameter-measured: pIC50

Lab note: UniProt P17612 assay, enter pIC50 for O=C(c1ccc2cc[nH]c2c1)N1CCC(Cc2ccccc2)CC1 [Piperidinyl 6, 4-benzylpiperidinyl-indole-6-carboxamide] here
< 3.30

====

Target: p38α (Homo sapiens, UniProt Q16539)
Sequence (Q16539 whole entry): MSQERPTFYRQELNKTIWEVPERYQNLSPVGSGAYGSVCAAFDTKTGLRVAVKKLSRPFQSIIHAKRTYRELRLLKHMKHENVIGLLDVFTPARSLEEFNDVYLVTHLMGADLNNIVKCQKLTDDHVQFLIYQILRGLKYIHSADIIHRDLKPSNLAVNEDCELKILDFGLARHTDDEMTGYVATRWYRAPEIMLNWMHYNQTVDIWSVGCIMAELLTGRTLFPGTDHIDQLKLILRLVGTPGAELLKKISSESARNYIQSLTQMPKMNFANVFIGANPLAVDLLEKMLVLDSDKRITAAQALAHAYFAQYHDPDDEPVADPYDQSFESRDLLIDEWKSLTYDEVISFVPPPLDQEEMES
Experiment: Assay for p38 kinase inhibition (p38α)
Type: biochemical
Conditions: Table 1; by ring position of the piperidinyl or piperazinyl substituent on indole; read-out: IC50 for inhibition of p38α
Give measured pIC50 for each item. Keep answers brief.
Scale explanation: pIC50 corresponds to minus log10 of a concentration expressed in moles per litre.

Entry O=C(c1ccc2[nH]ccc2c1)N1CCC(Cc2ccccc2)CC1 [Piperidinyl 5, 4-Benzylpiperidinyl-indole-5-carboxamide] needs its pIC50 filled in; supply it.
6.62

Entry O=C(c1ccc2cc[nH]c2c1)N1CCN(Cc2ccccc2)CC1 needs its pIC50 filled in; supply it.
5.30

Entry O=C(c1cccc2[nH]ccc12)N1CCC(Cc2ccccc2)CC1 needs its pIC50 filled in; supply it.
6.70

Entry O=C(c1cc2ccccc2[nH]1)N1CCC(Cc2ccccc2)CC1 needs its pIC50 filled in; supply it.
5.49

====

pIC50: −log10 of the molar value.
parameter-measured: pIC50

Lab note: ERK-2 (Homo sapiens) assay, enter pIC50 for O=C(c1ccc2cc[nH]c2c1)N1CCC(Cc2ccccc2)CC1 [Piperidinyl 6, 4-benzylpiperidinyl-indole-6-carboxamide] here
Sequence (P28482 whole entry, species assumed): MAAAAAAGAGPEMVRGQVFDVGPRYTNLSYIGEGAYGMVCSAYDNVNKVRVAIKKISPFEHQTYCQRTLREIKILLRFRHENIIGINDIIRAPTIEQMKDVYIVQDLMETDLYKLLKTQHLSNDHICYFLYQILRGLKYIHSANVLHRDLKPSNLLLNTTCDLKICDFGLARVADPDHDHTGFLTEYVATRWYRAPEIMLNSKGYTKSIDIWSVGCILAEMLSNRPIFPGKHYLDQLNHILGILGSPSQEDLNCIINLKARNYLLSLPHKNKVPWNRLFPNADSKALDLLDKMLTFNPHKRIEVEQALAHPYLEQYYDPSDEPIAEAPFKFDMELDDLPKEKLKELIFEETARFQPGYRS
< 3.52

====

Target: DNA-PK (Homo sapiens)
parameter-measured: pIC50
Scale explanation: pIC50 corresponds to minus log10 of a concentration expressed in moles per litre.

Entry O=C(c1ccc2cc[nH]c2c1)N1CCC(Cc2ccccc2)CC1 [Piperidinyl 6, 4-benzylpiperidinyl-indole-6-carboxamide] needs its pIC50 filled in; supply it.
3.35

====

Biological target: p38α (Homo sapiens, UniProt Q16539)
Experiment: Assay for p38 kinase inhibition (p38α);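 further: radiometric p38 kinase assay, peptide substrate phosphorylation with γ-32P-ATP, 40 min at room temperature, incorporated counts measured by scintillation, inhibition relative to uninhibited kinase activity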
Format: biochemical
Conditions: Table 5; read-out: IC50, inhibition of p38α
parameter-measured: pIC50
Scale explanation: pIC50 corresponds to minus log10 of a concentration expressed in moles per litre.

Lab note: p38α (Homo sapiens, UniProt Q16539) assay, enter pIC50 for CCN(CC)CCCn1ccc2cc(C(=O)N3CCC(Cc4ccccc4)CC3)c(Cl)cc21 here
6.70

Lab note: p38α (Homo sapiens, UniProt Q16539) assay, enter pIC50 for O=C(c1ccc2[nH]cc(CN3CCOCC3)c2c1)N1CCC(Cc2ccccc2)CC1 here
5.18

Lab note: p38α (Homo sapiens, UniProt Q16539) assay, enter pIC50 for COc1cc2[nH]ccc2cc1C(=O)N1CCC(Cc2ccc(F)cc2)CC1 here
6.80

Lab note: p38α (Homo sapiens, UniProt Q16539) assay, enter pIC50 for O=C(c1ccc2c(ccn2C(=O)c2ccncc2)c1)N1CCC(Cc2ccccc2)CC1 [drawing 83] here
6.39
